# Test Details: Efflux ratio of apparent permeability across basolateral to apical side over apical to basolateral side in MDCK-MDR1 cells at 5 uM measured after 60 mins by LC-MS/MS analysis
# Type: ADME, cell-based, Canis lupus familiaris
# Assay Context: dog
Measured Parameter: efflux ratio at 1 h, 5 µM
Give bare numbers.

CN(C)C(=O)Cn1c(=O)n(C)c2ncc(-c3cccc(C(F)(F)F)c3)cc21 :: 7
Cn1c(=O)n(CC(=O)N2CC(F)C2)c2cc(-c3ccc(C(F)(F)F)s3)cnc21 :: 3.7
Cn1c(=O)n(CC(=O)N2CC(F)C2)c2cc(-c3cccc(C(F)(F)F)c3)cnc21 :: 7
CN(C)C(=O)Cn1c(=O)n(C)c2ncc(-c3ccc(C(F)(F)F)s3)cc21 :: 1.4
Cn1c(=O)n(CC(=O)N2CCC2)c2cc(-c3ccc(C(F)(F)F)s3)cnc21 :: 2.1
Cc1ccc(-c2cnc3c(c2)n(CC(=O)N2CCC2)c(=O)n3C)s1 :: 3.2

Give me efflux ratio at 1 h, 5 µM for each of these compounds, listed below.
1. Cn1c(=O)n(CC(=O)N2CCC2)c2cc(-c3cccc(C(F)(F)F)c3)cnc21
2. Cn1c(=O)n(CC(=O)N2CCC2)c2cc(-c3cc(C(F)F)cs3)cnc21
3. Cn1c(=O)n(CC(=O)N2CCC2)c2cc(-c3ccc(C(F)F)s3)cnc21

Response:
9
9.1
5.8

Form: compound = "Cc1csc(-c2cnc3c(c2)n(CC(=O)N(C)C)c(=O)n3C)c1" ; efflux ratio at 1 h, 5 µM = 3.5
